targetSystem: recombinant HA1 domain (D18-R344), A/California/06/2009 (H1N1)pdm09 (Influenza A virus A/California/06/2009 …, UniProt C3W5S1, strain)
assayInfo: SPR
conditionInfo: both partners purified
resultType: pKd
pKd here is simply -log10 of the concentration when that concentration is written in mol/L.

binder	experimentalValue
R2a-G8 (VHH, source: E. coli WK6 periplasm, purified (Talon IMAC, Superdex 75 SEC)) VHH: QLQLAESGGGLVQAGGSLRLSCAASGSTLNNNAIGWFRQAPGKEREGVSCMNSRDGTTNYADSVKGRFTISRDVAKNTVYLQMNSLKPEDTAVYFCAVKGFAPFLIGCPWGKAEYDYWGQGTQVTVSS	8.12

Turning now to a further record.
query: Could you share which pKd value was measured for R1a-G6 (VHH, source: E. coli WK6 periplasm, purified (Talon IMAC, Superdex 75 SEC)) VHH: QVQLVESGGGLVQSGGSLRLSCAASGSMSRIITMGWYRQAPGMERELVAVIGNNDNTVYGDSVQGRFTVSRDNAKNTAYLQMNSLNAEDTAMYYCKISTLTPPHEYWGQGTQVTVSS ?
result: 8.34
